Recorded IC50 at 72 h by entry
Test: Cytotoxicity against human MRC5 cells assessed as inhibition of cell proliferation measured after 72 hrs by MTT assay
Format: toxicity, cell-based
Outcome Measure: IC50 at 72 h (µM)

[[record]]
compound = "CCCCCCCCCCCCCC(=O)OCCc1ccc(O)c(O)c1"
outcome_measure = "IC50 at 72 h"
result_units = "µM"
comparator = ">"
recorded_number = 50

[[record]]
compound = "OCCc1ccc(O)cc1 [TYROSOL]"
outcome_measure = "IC50 at 72 h"
result_units = "µM"
comparator = ">"
recorded_number = 500

[[record]]
compound = "CCCCCCCCCCOCCc1ccc(O)c(O)c1"
outcome_measure = "IC50 at 72 h"
result_units = "µM"
comparator = ">"
recorded_number = 50

[[record]]
compound = "CC(=O)OCCc1ccc(O)cc1"
outcome_measure = "IC50 at 72 h"
result_units = "µM"
comparator = "="
recorded_number = 114

[[record]]
compound = "CCCCCCCCCC(=O)OCCc1ccc(O)cc1"
outcome_measure = "IC50 at 72 h"
result_units = "µM"
comparator = "="
recorded_number = 172

[[record]]
compound = "CCCCCCCCCC(=O)OCCc1ccc2c(c1)OCO2"
outcome_measure = "IC50 at 72 h"
result_units = "µM"
comparator = ">"
recorded_number = 50

[[record]]
compound = "O=C(O)[C@H]1O[C@@H](Oc2ccc(CCO)cc2)[C@H](O)[C@@H](O)[C@@H]1O"
outcome_measure = "IC50 at 72 h"
result_units = "µM"
comparator = "="
recorded_number = 110

[[record]]
compound = "CCCCCCCCCCCCSCCc1ccc(OCc2ccc(OC)cc2)c(OCc2ccc(OC)cc2)c1"
outcome_measure = "IC50 at 72 h"
result_units = "µM"
comparator = ">"
recorded_number = 50

[[record]]
compound = "CCCCCCCCCCCCNC(=S)NCCc1ccc(O)c(O)c1"
outcome_measure = "IC50 at 72 h"
result_units = "µM"
comparator = "="
recorded_number = 2.96

[[record]]
compound = "CCCC(=O)OCCc1ccc(O)c(O)c1 [HYDROXYTYROSOL BUTANOATE]"
outcome_measure = "IC50 at 72 h"
result_units = "µM"
comparator = "="
recorded_number = 71.5

[[record]]
compound = "CCCCCCCCCCOCCc1ccc(OCc2ccccc2)c(OCc2ccccc2)c1"
outcome_measure = "IC50 at 72 h"
result_units = "µM"
comparator = ">"
recorded_number = 50

[[record]]
compound = "CCCCCCCCCCCCSCCc1ccc(OCc2ccccc2)c(OCc2ccccc2)c1"
outcome_measure = "IC50 at 72 h"
result_units = "µM"
comparator = ">"
recorded_number = 50

[[record]]
compound = "CCCCCCCCCCCC(=O)OCCc1ccc(O)c(O)c1"
outcome_measure = "IC50 at 72 h"
result_units = "µM"
comparator = "="
recorded_number = 38.1

[[record]]
compound = "CC(=O)OCCc1ccc(O)c(O)c1"
outcome_measure = "IC50 at 72 h"
result_units = "µM"
comparator = ">"
recorded_number = 50

[[record]]
compound = "CCCCCCCCCCOCCc1ccc(OCc2ccc(OC)cc2)c(OCc2ccc(OC)cc2)c1"
outcome_measure = "IC50 at 72 h"
result_units = "µM"
comparator = ">"
recorded_number = 50

[[record]]
compound = "CCCCCCCCCCNC(=S)NCCc1ccc(O)c(O)c1"
outcome_measure = "IC50 at 72 h"
result_units = "µM"
comparator = "="
recorded_number = 24.8

[[record]]
compound = "CCCCCCCCCC(=O)NCCc1ccc(O)c(O)c1"
outcome_measure = "IC50 at 72 h"
result_units = "µM"
comparator = ">"
recorded_number = 50

[[record]]
compound = "CCCCCC(=O)OCCc1ccc(O)cc1"
outcome_measure = "IC50 at 72 h"
result_units = "µM"
comparator = "="
recorded_number = 166

[[record]]
compound = "NCCc1ccc(O)c(O)c1 [DOPAMINE]"
outcome_measure = "IC50 at 72 h"
result_units = "µM"
comparator = "="
recorded_number = 68.9

[[record]]
compound = "Oc1ccc(CCN=C=S)cc1O"
outcome_measure = "IC50 at 72 h"
result_units = "µM"
comparator = "="
recorded_number = 21.1

[[record]]
compound = "OCCc1ccc(O)c(O)c1 [HYDROXYTYROSOL]"
outcome_measure = "IC50 at 72 h"
result_units = "µM"
comparator = ">"
recorded_number = 50

[[record]]
compound = "O=S(=O)([O-])Oc1ccc(CCO)cc1.[K+]"
outcome_measure = "IC50 at 72 h"
result_units = "µM"
comparator = "="
recorded_number = 106

[[record]]
compound = "CCCCCCCC(=O)OCCc1ccc(O)c(O)c1"
outcome_measure = "IC50 at 72 h"
result_units = "µM"
comparator = "="
recorded_number = 104

[[record]]
compound = "CCCCCCCCCC(=O)OCCc1ccc(O)c(O)c1 [HYDROXYTYROSOL DECANOATE]"
outcome_measure = "IC50 at 72 h"
result_units = "µM"
comparator = "="
recorded_number = 71.1

[[record]]
compound = "CCCCCCCCCCCC(=O)NCCc1ccc(O)c(O)c1"
outcome_measure = "IC50 at 72 h"
result_units = "µM"
comparator = ">"
recorded_number = 50

[[record]]
compound = "CCCCCCCCCCCCCCCC(=O)OCCc1ccc(O)c(O)c1 [HYDROXYTYROSOL PALMITATE]"
outcome_measure = "IC50 at 72 h"
result_units = "µM"
comparator = ">"
recorded_number = 50

[[record]]
compound = "CCCCCCCCCCCCOCCc1ccc(O)c(O)c1"
outcome_measure = "IC50 at 72 h"
result_units = "µM"
comparator = "="
recorded_number = 13.2

[[record]]
compound = "CCCCCCCCCCCC(=O)OCCc1ccc(O)cc1"
outcome_measure = "IC50 at 72 h"
result_units = "µM"
comparator = "="
recorded_number = 67.2

[[record]]
compound = "CCCCCCCC(=O)OCCc1ccc(O)cc1"
outcome_measure = "IC50 at 72 h"
result_units = "µM"
comparator = "="
recorded_number = 133

[[record]]
compound = "CCCCCCCCCCCC(=O)OCCc1ccc2c(c1)OCO2"
outcome_measure = "IC50 at 72 h"
result_units = "µM"
comparator = ">"
recorded_number = 50


----------
Test system: Leishmania infantum
Assay: Leishmanicidal activity against Leishmania infantum MHOM/TN/94/LV50 promastigotes after 24 hrs by MTT assay
Format: functional
Settings: MHOM/TN/94/LV50, 24 h
pIC50: −log10 of the molar value.
Outcome Measure: pIC50

[[record]]
smiles_repr = "CCCCCCCCCC(=O)OCCc1ccc(O)cc1"
recorded_number = 3.88


----------
Experiment: Selectivity index, ratio of IC50 for human MRC5 cells to IC50 for bloodstream form of Trypanosoma brucei brucei S16
Type: toxicity, cell-based
Conditions: read-out: Ratio IC50
Please use Fulfilled whenever selectivity ratio is not below 3, and Not fulfilled whenever it is.

[[record]]
compound = "CCCCCCCCCCCC(=O)NCCc1ccc(O)c(O)c1"
group_label = "Fulfilled"

[[record]]
compound = "CCCCCCCCCC(=O)OCCc1ccc(O)c(O)c1 [HYDROXYTYROSOL DECANOATE]"
group_label = "Fulfilled"

[[record]]
compound = "CCCCCCCCCCCCSCCc1ccc(OCc2ccc(OC)cc2)c(OCc2ccc(OC)cc2)c1"
group_label = "Fulfilled"

[[record]]
compound = "CCCCCCCCCCCC(=O)OCCc1ccc2c(c1)OCO2"
group_label = "Fulfilled"

[[record]]
compound = "CCCCCCCCCCCC(=O)OCCc1ccc(O)cc1"
group_label = "Fulfilled"

[[record]]
compound = "CCCCCCCCCCOCCc1ccc(OCc2ccccc2)c(OCc2ccccc2)c1"
group_label = "Fulfilled"

[[record]]
compound = "CCCCCCCC(=O)OCCc1ccc(O)cc1"
group_label = "Not fulfilled"

[[record]]
compound = "CCCCCCCCCC(=O)OCCc1ccc2c(c1)OCO2"
group_label = "Fulfilled"

[[record]]
compound = "NCCc1ccc(O)c(O)c1 [DOPAMINE]"
group_label = "Fulfilled"

[[record]]
compound = "CCCCCC(=O)OCCc1ccc(O)cc1"
group_label = "Not fulfilled"

[[record]]
compound = "CCCCCCCCCCCCCC(=O)OCCc1ccc(O)c(O)c1"
group_label = "Fulfilled"

[[record]]
compound = "CCCC(=O)OCCc1ccc(O)c(O)c1 [HYDROXYTYROSOL BUTANOATE]"
group_label = "Fulfilled"

[[record]]
compound = "Oc1ccc(CCN=C=S)cc1O"
group_label = "Not fulfilled"

[[record]]
compound = "CCCCCCCC(=O)OCCc1ccc(O)c(O)c1"
group_label = "Fulfilled"

[[record]]
compound = "CCCCCCCCCCNC(=S)NCCc1ccc(O)c(O)c1"
group_label = "Fulfilled"

[[record]]
compound = "CCCCCCCCCCCCOCCc1ccc(O)c(O)c1"
group_label = "Fulfilled"

[[record]]
compound = "O=C(O)[C@H]1O[C@@H](Oc2ccc(CCO)cc2)[C@H](O)[C@@H](O)[C@@H]1O"
group_label = "Not fulfilled"

[[record]]
compound = "CC(=O)OCCc1ccc(O)cc1"
group_label = "Not fulfilled"

[[record]]
compound = "CCCCCCCCCCOCCc1ccc(O)c(O)c1"
group_label = "Fulfilled"

[[record]]
compound = "CCCCCCCCCCCCNC(=S)NCCc1ccc(O)c(O)c1"
group_label = "Fulfilled"

[[record]]
compound = "CCCCCCCCCCCCCCCC(=O)OCCc1ccc(O)c(O)c1 [HYDROXYTYROSOL PALMITATE]"
group_label = "Fulfilled"

[[record]]
compound = "CCCCCCCCCC(=O)NCCc1ccc(O)c(O)c1"
group_label = "Fulfilled"

[[record]]
compound = "CCCCCCCCCCCCSCCc1ccc(OCc2ccccc2)c(OCc2ccccc2)c1"
group_label = "Fulfilled"

[[record]]
compound = "O=S(=O)([O-])Oc1ccc(CCO)cc1.[K+]"
group_label = "Not fulfilled"

[[record]]
compound = "CCCCCCCCCCOCCc1ccc(OCc2ccc(OC)cc2)c(OCc2ccc(OC)cc2)c1"
group_label = "Fulfilled"

[[record]]
compound = "OCCc1ccc(O)cc1 [TYROSOL]"
group_label = "Fulfilled"

[[record]]
compound = "CCCCCCCCCC(=O)OCCc1ccc(O)cc1"
group_label = "Not fulfilled"

